Source: patent US20160347750A1

- Tested System: BRD4 (Homo sapiens, UniProt O60885)
- Experiment Notes: BRD4 IC50, second listed in Table 2
- Format: binding
- Experimental Conditions: second BRD4 value listed in the cell; read-out: BRD4 IC50
pIC50: −log10 of the molar value.
// values below are reported pIC50

{"Smiles Code": "CC[C@@H]1C(=O)Nc2cnc(Nc3ccc(C(=O)NC4CCN(C)CC4)cc3OC)nc2N1C1CCCC1", "pIC50": 5.20}
{"Smiles Code": "CC[C@@H]1C(=O)N(CC)c2cnc(Nc3ccc(C(=O)NC4CCN(C)CC4)cc3OC)nc2N1C1CCCC1", "pIC50": 6.26}
{"Smiles Code": "COc1cc(C(=O)NC2CCN(C)CC2)ccc1Nc1ccc2c(n1)N(C1CCCC1)[C@H](C)C(=O)N2C", "pIC50": 7.00}
{"Smiles Code": "CC[C@@H]1C(=O)N(C)c2cnc(N3CCc4cc(C(=O)NC5CCN(C)CC5)ccc43)nc2N1C1CCCC1", "pIC50": 7.37}
{"Smiles Code": "C[C@@H]1C(=O)N(C)c2ccc(N3CCc4cc(C(=O)NC5CCN(C)CC5)ccc43)nc2N1C1CCCC1", "pIC50": 7.11}
{"Smiles Code": "CC[C@@H]1C(=O)N(C)c2cnc(N3CCOc4cc(C(=O)NC5CCN(C)CC5)ccc43)nc2N1C1CCCC1", "pIC50": 6.08}
{"Smiles Code": "CC[C@@H]1C(=O)N(C)c2cnc(Oc3ccc(C(=O)NC4CCN(C)CC4)cc3OC)nc2N1C1CCCC1", "pIC50": 6.14}
{"Smiles Code": "CC[C@@H]1C(=O)N(C)c2ccc(N3CCc4cc(C(=O)NC5CCN(C)CC5)ccc43)nc2N1C1CCCC1", "pIC50": 6.76}
{"Smiles Code": "CC[C@@H]1C(=O)N(C)c2ccc(Nc3ccc(C(=O)NC4CCN(C)CC4)cc3OC)nc2N1C1CCCC1", "pIC50": 6.73}
{"Smiles Code": "CC[C@@H]1C(=O)N(C)c2cnc(Nc3ccc(C(=O)NC4CCN(C)CC4)cc3OC3CCOCC3)nc2N1C1CCCC1", "pIC50": 6.64}
{"Smiles Code": "COc1cc(C(=O)NC2CCN(C)CC2)ccc1Nc1ncc2c(n1)N(C1CCCC1)[C@H](CC(C)C)C(=O)N2C", "pIC50": 4.73}
{"Smiles Code": "CC[C@@H]1C(=O)N(C)c2cnc(N(C)c3ccc(C(=O)NC4CCN(C)CC4)cc3OC)nc2N1C1CCCC1", "pIC50": 6.61}
{"Smiles Code": "CC[C@@H]1C(=O)N(C)c2cnc(Nc3ccc(C(=O)NC4CCN(C)CC4)cc3OC3CCCC3)nc2N1C1CCCC1", "pIC50": 7.11}

====

- Tested on: TF-1
- Experiment Notes: Cell line IC50, TF-1
- Format: cell-based
- Experimental Conditions: Homo sapiens; TF-1 cell line
Reported log10 of IC50 values follow for various compounds
Observation Type: log10 of IC50 (log10 of the value in nM)

{"Compound": "CC[C@@H]1C(=O)Nc2cnc(Nc3ccc(C(=O)NC4CCN(C)CC4)cc3OC)nc2N1C1CCCC1", "log10 of IC50": 3.83}
{"Compound": "CC[C@@H]1C(=O)N(C)c2cnc(Oc3ccc(C(=O)NC4CCN(C)CC4)cc3OC)nc2N1C1CCCC1", "log10 of IC50": 3.73}
{"Compound": "CC[C@@H]1C(=O)N(C)c2cnc(Nc3ccc(C(=O)NC4CCN(C)CC4)cc3OC3CCCC3)nc2N1C1CCCC1", "log10 of IC50": 2.48}
{"Compound": "CC[C@@H]1C(=O)N(C)c2cnc(Nc3ccc(C(=O)NC4CCN(C)CC4)cc3OC)nc2N1C1CCCC1 [drawing 214]", "log10 of IC50": 2.89}
{"Compound": "CC[C@@H]1C(=O)N(CC)c2cnc(Nc3ccc(C(=O)NC4CCN(C)CC4)cc3OC)nc2N1C1CCCC1", "log10 of IC50": 2.91}
{"Compound": "CC[C@@H]1C(=O)N(C)c2cnc(N(C)c3ccc(C(=O)NC4CCN(C)CC4)cc3OC)nc2N1C1CCCC1", "log10 of IC50": 3.20}
